test: NFkB reporter suppression in cystic fibrosis bronchial cells – cell-based, uHTS hits, panel, cytotoxicity readout, dose response (AID 624344); settings: CF bronchial epithelial cells, PAF-induced NFkB reporter inhibition; with PAF, mean of runs
Calls of active or inactive are those of the source. The rule behind the calls is not given here.
// classify into 1 (yes) = active, 0 (no) = inactive

Solved cases below.
1. Nc1nccc(SCc2ccc(Cl)cc2Cl)n1 :: 1 (yes)
2. COc1ccc(-c2oc3ccc(-c4ccc(OC)nc4)cc3c2C#CC2(O)CCCCC2)cc1 :: 1 (yes)
3. CCSc1nsc(NC(=O)Nc2cccc(OC)c2)n1 :: 1 (yes)
4. COc1ccc(/C=N/NC(=O)c2[nH]c3ccc(Br)cc3c2-c2ccccc2)cc1 :: 1 (yes)
5. COc1ccccc1NS(=O)(=O)c1cccc(-n2c(O)c(C=Nc3ccccc3C(=O)O)c3ccccc3c2=O)c1 :: 1 (yes)
6. COc1cc2c(c(OC)c1OC)-c1ccc(O)cc1C(NC(C)=O)CC2 (stereo unspecified) :: 0 (no)
7. CCSc1nsc(NC(=O)Nc2cccc(C(C)=O)c2)n1 :: 1 (yes)
8. CC1CCc2c(sc3ncnc(N4CCOCC4)c23)C1 (stereo unspecified) :: 1 (yes)
9. C=CC(=O)Nc1cccc(Oc2ncnc3[nH]cc(-c4cnc5ccccc5c4)c23)c1 :: 1 (yes)
10. Cc1ccc(N(C)C(=O)c2cc(S(=O)(=O)N3CCCCC3)c[nH]2)cc1 :: 1 (yes)

I would be grateful if you could indicate the recorded call for Cc1nc2sc(C(N)=O)c(N)c2c2c1CCCC2 .
1 (yes)

I would be grateful if you could indicate the recorded call for Cc1nn(-c2nccs2)c2c1C(=O)CC(C)(C)C2Br (stereo unspecified) .
1 (yes)

I would be grateful if you could indicate the recorded call for CCOC(=O)Oc1c(OC)cc(C(=O)O[C@@H]2C[C@@H]3CN4CCc5c([nH]c6cc(OC)ccc56)[C@H]4C[C@@H]3[C@H](C(=O)OC)[C@H]2OC)cc1OC .
1 (yes)

I would be grateful if you could indicate the recorded call for CCn1c2ccccc2c2cc(/C=N/O)ccc21 .
1 (yes)

* * *

experiment: NFkB reporter suppression in cystic fibrosis bronchial cells – cell-based, uHTS hits, panel, cytotoxicity readout, dose response (AID 624344); conditions: CF bronchial epithelial cells, PAF-induced NFkB reporter inhibition; with PAF, mean of runs
Activity calls are given as the source filed them. No rule for the calls is given here.
// classify into True = active, False = inactive

Solved cases below.
1. CCOc1cc2c(cc1O)C(=NOC)CC1C2CCC2(C)C(O)CCC12 (stereo not given) :: True
2. CC1(Cc2ccc(F)cc2)C(=O)Nc2ccc(-c3cccnc3)cc21 (stereo not given) :: True
3. CC(=O)N1CC(=O)N=C1SCC(=O)Nc1nc(C)c(-c2ccccc2)s1 :: True
4. COc1ccc(Cc2nnc(SCc3ccc([N+](=O)[O-])cc3)o2)cc1 :: True
5. CC(C)(C)OC(=O)NCC(=O)Oc1cc2oc(=O)cc(-c3ccccc3)c2cc1Cl :: True
6. C=C1C(=O)O[C@H]2C[C@H]1[C@@H](OC(C)=O)C/C(C)=C/CC/C(C)=C\CC[C@]2(C)O :: True
7. O=C(CCC1COc2ccccc2O1)Nc1ccc(Cl)cn1 (stereo not given) :: True
8. NC(=O)c1sc2nc3c(c(-c4ccco4)c2c1N)CCCC3 :: True
9. CCOCC(=O)NC1CCc2cc(OC(=O)COCC)c(OC)c(OC)c2-c2ccc(SC)c(=O)cc21 (stereo not given) :: False

Moving on to another molecule below.
I would be grateful if you could indicate the recorded call for c1cc2[nH]snc2c2nc(C3CC3)nc12 .
True
